Sourced from patent US20170145113A1

molecular target: T1, His-tagged human HtrA1 protease domain (human, UniProt Q92743 161-367); test: SPR (BIACORE T200), huHtrA1-PD-His captured by anti-His, Fab injected
T1 construct: His-tagged protease domain; also called huHtrA1-PD-His; huHtrA1-PD
T1 sequence (Q92743 other isoform, or with tags, fused parts or gaps limits assumed): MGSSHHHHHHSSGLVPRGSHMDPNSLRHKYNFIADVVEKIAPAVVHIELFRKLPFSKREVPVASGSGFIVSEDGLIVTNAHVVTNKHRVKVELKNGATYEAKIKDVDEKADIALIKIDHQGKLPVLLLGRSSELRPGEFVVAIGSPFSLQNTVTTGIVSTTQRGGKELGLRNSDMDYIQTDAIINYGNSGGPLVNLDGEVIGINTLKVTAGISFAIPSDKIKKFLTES
EXPERIMENTAL READOUT: Kd (pM)
Numbers only, in pM.

In the examples that follow, each entry is paired with its recorded Kd.
Query: Any idea what its Kd is? The binder is h15H6.v2 variant LC8 (LC-S92K) Fab (Fab, V domains shown, Fab-Flag tag fusion from 293T cells) VH: EVQLVQSGAEVKKPGASVKVSCKASGYTFTDSEMHWVRQAPGQGLEWIGGVDPETDGAAYNQKFKGRATITRDTSTSTAYLELSSLRSEDTAVYYCTRGYDYDYALDYWGQGTLVTVSS VL: DIQMTQSPSSLSASVGDRVTITCRASSSVNFIHWYQQKPGKAPKPLISATSNLASGVPSRFSGSGSGTDFTLTISSLQPEDFATYYCQQWKSNPWTFGQGTKVEIK
Reply: 1160

Query: Any idea what its Kd is? The binder is h15H6.v2 variant LC5 (LC-N53E) Fab (Fab, V domains shown, Fab-Flag tag fusion from 293T cells) VH: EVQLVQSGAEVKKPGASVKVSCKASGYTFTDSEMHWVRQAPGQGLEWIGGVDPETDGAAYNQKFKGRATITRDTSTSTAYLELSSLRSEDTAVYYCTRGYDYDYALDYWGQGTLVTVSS VL: DIQMTQSPSSLSASVGDRVTITCRASSSVNFIHWYQQKPGKAPKPLISATSELASGVPSRFSGSGSGTDFTLTISSLQPEDFATYYCQQWSSNPWTFGQGTKVEIK
Reply: 481

// below: Kd requested for another binder
Query: Any idea what its Kd is? The binder is h15H6.v2 variant HC9 (HC-A100aP) Fab (Fab, V domains shown, Fab-Flag tag fusion from 293T cells) VH: EVQLVQSGAEVKKPGASVKVSCKASGYTFTDSEMHWVRQAPGQGLEWIGGVDPETDGAAYNQKFKGRATITRDTSTSTAYLELSSLRSEDTAVYYCTRGYDYDYPLDYWGQGTLVTVSS VL: DIQMTQSPSSLSASVGDRVTITCRASSSVNFIHWYQQKPGKAPKPLISATSNLASGVPSRFSGSGSGTDFTLTISSLQPEDFATYYCQQWSSNPWTFGQGTKVEIK
Reply: 618
